# System: HEK-293T
# EXPERIMENT: Multiplex assay against HEK293T
# Assay type: toxicity, cell-based
# CONDITION PARAMETERS: human, 12 h, 10 µM, compound concentration 10 uM, replicate 1
REPORTED PROPERTY: Population Membrane Permeable-Phenotype (%)

COMPOUND	TARGET OR TEST SYSTEM	RESULT
CN(C)C/C=C/C(=O)Nc1cc2c(Nc3ccc(F)c(Cl)c3)ncnc2cc1O[C@H]1CCOC1.O=C(O)/C=C\C(=O)O.O=C(O)/C=C\C(=O)O [AFATINIB DIMALEATE]	HEK-293T	17%
CNC(=O)c1cc(Oc2ccc(NC(=O)Nc3cc(C(C)(C)C)nn3-c3ccc4ncccc4c3)c(F)c2)ccn1	HEK-293T	13%
CC(C)(C)c1cnc(CSc2cnc(NC(=O)C3CCNCC3)s2)o1	HEK-293T	4%
Nc1nc2c(c(N3CCNCC3)n1)CCC1=C2[C@@H]2CCCC[C@@H]2O1	HEK-293T	4%
COc1ccc(NS(=O)(=O)c2sc3ccc(Cl)cc3c2C)cc1N1CCNCC1.Cl	HEK-293T	4%
c1ccc2oc(-c3csc(C4CCN(Cc5nc6ncccc6[nH]5)CC4)n3)cc2c1	HEK-293T	5%
